# Test system: LoVo
# ASSAY_EXPLANATION: Cytotoxicity against human LoVo cells after 72 hrs by MTT assay
# Format: functional, cell-based
RECORDED_METRIC: pIC50
Recall that pIC50 is obtained by taking minus log10 of the concentration measured in molar.

Exercise: // fetch LoVo pIC50 for CC1=C(CC/C(C)=C/CC[C@@]2(C)CC[C@H]([C@H](C)C(=O)O)OO2)C(C)(C)CCC1
Key: 5.22

----------
# Test system: HBL-100
# ASSAY_EXPLANATION: Cytotoxicity against human HBL100 cells after 72 hrs by MTT assay
# Assay type: cell-based
# CONDITION_PARAMETERS: HBL-100, 72 h
RECORDED_METRIC: IC50 (nM)
Respond with the bare value in nM.

Exercise: Returns the measured IC50 for the input compound. Input: CC1=C(CC/C(C)=C/CC[C@@]2(C)CC[C@H]([C@H](C)C(=O)O)OO2)C(C)(C)CCC1
Key: 3000
